# pIC50 per entry
Target: HDAC8 (Homo sapiens, UniProt Q9BY41)
Sequence (Q9BY41 1-377): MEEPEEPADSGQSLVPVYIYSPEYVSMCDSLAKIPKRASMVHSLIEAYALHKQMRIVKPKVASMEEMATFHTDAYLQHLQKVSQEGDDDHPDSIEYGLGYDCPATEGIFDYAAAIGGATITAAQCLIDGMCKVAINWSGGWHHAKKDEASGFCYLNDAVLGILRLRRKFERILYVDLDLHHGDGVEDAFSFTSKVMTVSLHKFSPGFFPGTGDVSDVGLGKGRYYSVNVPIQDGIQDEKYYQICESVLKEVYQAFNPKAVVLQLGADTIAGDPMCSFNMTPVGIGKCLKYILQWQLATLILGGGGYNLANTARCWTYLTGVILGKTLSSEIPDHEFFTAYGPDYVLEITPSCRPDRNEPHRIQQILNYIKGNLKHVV
pIC50: −log10 of the molar value.

COc1cccc2c(=O)c3c(Cl)ccc(C(=O)NCCCCCCC(=O)Nc4ccccc4N)c3[nH]c12 [Compound 11c]    < 5.30

Pending molecule:
Reported pIC50 ( COc1cccc2c(=O)c3c(Cl)ccc(C(=O)NCCCCCC(=O)Nc4ccccc4N)c3[nH]c12 [Compound 11b] ) = < 5.30

====

# SI (selectivity index) per entry
molecular target: HDAC1 (Homo sapiens); experiment: In vitro HDAC1 inhibition assay; type: biochemical; conditions: ratio of IC50 of HDAC6 divided by that of HDAC1
Sequence (Q13547 whole entry): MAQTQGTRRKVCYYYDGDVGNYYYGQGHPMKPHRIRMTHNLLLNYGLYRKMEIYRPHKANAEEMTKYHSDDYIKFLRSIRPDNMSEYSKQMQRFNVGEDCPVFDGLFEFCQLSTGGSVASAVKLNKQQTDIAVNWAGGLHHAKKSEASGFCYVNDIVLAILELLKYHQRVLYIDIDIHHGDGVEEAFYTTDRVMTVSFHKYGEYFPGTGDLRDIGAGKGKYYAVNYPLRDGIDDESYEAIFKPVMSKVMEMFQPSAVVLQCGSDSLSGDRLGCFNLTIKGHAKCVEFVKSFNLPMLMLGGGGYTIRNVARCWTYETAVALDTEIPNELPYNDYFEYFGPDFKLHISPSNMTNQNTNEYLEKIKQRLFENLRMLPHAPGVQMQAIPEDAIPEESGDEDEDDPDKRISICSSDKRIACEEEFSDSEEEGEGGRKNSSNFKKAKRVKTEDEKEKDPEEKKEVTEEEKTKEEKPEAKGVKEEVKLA

COc1cccc2c(=O)c3c(Cl)ccc(C(=O)NCCCCCCC(=O)Nc4ccccc4N)c3[nH]c12 [Compound 11c]    >114.9
COc1cccc2c(=O)c3c(Cl)ccc(C(=O)NCCCCCC(=O)Nc4ccccc4N)c3[nH]c12 [Compound 11b]    >44.1
COc1cccc2c(=O)c3c(Cl)ccc(C(=O)NCCCC(=O)Nc4ccccc4N)c3[nH]c12 [Compound 11a]    >2.4

Pending compound:
Reported SI (selectivity index) ( COc1cccc2c(=O)c3c(Cl)ccc(C(=O)NCCCCCCC(=O)Nc4ccc(F)cc4N)c3[nH]c12 [Compound 11d] ) = >40.5

====

molecular target: UniProt Q13547; test: In vitro HDAC1 inhibition assay; format: biochemical
measured.parameter: IC50 (nM)

The examples below pair each entry with its known result.
COc1cccc2c(=O)c3c(Cl)ccc(C(=O)NCCCCCCC(=O)Nc4ccccc4N)c3[nH]c12 [Compound 11c]    87
COc1cccc2c(=O)c3c(Cl)ccc(C(=O)NCCCCCC(=O)Nc4ccccc4N)c3[nH]c12 [Compound 11b]    227

[A] COc1cccc2c(=O)c3c(Cl)ccc(C(=O)NCCCC(=O)Nc4ccccc4N)c3[nH]c12 [Compound 11a]
[B] COc1cccc2c(=O)c3c(Cl)ccc(C(=O)NCCCCCCC(=O)Nc4ccc(F)cc4N)c3[nH]c12 [Compound 11d]
Qu. In terms of reported IC50, does A or B have the smaller number? Which one? Tell me its label.
Ans. B
(B: 247 nM, A: 4090 nM)
